- tested-target: SARS-CoV-2 spike ectodomain (S-ecto), Wuhan-hu-1 strain, 2P (SARS-CoV-2, Wuhan-hu-1, UniProt P0DTC2, 2P mutation at residues 986 and 987 | 2P mutation at residues 986 and 987, biotin (NHS-sulfo-LC-Biotin, EZ-link biotinylation kit))
- assay: BLI
- assay-context: both partners purified
quantity: log10(koff) (log10 of the value in s⁻¹)

| binder | log10(koff) |
| --- | --- |
| humanized SW186 H4L2 (antibody, V domains shown) VH: QVQLVQSGAEVKKPGSSVKVSCKASGVAFSSYWMNWVKQAPGQGLEWIGQIYPGDGDTNYNGKFKGKATITADKSTSTAYMELSSLRSEDTAVYFCARGFIATVEETMDYWGQGTLVTVSS VL: DIQMTQSPSSLSASVGDRVTITCRASQDISNYLNWYQQKPGKAPKLLIYYTSRLHSGVPSRFSGSGSGTDFTLTISSLQPEDFATYFCQQSHTLPWTFGGGTKLEIK | -3.02 |
| humanized SW186 H1L2 (antibody, V domains shown) VH: QVQLVQSGAEVKKPGSSVKVSCKASGVAFSSYWMNWVRQAPGQGLEWMGQIYPGDGDTNYNGKFKGRVTITADKSTSTAYMELSSLRSEDTAVYYCARGFIATVEETMDYWGQGTLVTVSS VL: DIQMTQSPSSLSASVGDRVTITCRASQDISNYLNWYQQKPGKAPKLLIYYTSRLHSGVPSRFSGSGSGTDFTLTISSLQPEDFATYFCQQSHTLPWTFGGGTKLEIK | -2.90 |
| humanized SW186 H3L2 (antibody, V domains shown) VH: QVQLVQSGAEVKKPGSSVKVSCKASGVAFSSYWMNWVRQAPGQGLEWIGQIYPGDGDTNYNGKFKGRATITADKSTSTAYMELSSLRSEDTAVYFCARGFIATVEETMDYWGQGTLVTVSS VL: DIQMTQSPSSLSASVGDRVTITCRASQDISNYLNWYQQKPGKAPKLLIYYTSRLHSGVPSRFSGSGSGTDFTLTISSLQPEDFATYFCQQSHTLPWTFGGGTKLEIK | -2.91 |
| humanized SW186 H2L2 (antibody, V domains shown) VH: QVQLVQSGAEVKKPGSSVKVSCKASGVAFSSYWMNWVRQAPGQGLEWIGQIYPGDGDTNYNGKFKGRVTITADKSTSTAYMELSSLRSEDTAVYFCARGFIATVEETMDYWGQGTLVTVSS VL: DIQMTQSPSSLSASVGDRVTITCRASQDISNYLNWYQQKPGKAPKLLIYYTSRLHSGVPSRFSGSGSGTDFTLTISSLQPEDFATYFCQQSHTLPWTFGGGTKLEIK | -2.82 |
| SW186 (murine variable regions, murine-human chimeric) (Fab, V domains shown) VH: QVQLQQSGAELVKPGASVKISCKASGVAFSSYWMNWVKQRPGKGLEWIGQIYPGDGDTNYNGKFKGKATLTADKSSSTAYMQLSSLSSEDSAVYFCARGFIATVEETMDYWGQGTSVTVSS VL: DIQMTQTTSSLSASLGDRVTISCRASQDISNYLNWYQQKPDGTVKLLIYYTSRLHSGVPSRFSGSGSGTDYSLTISNLEQEDIATYFCQQSHTLPWTFGGGTKLEIK | -3.89 |
